test system: CD69 positive cells that are also CD20 positive, stimulated by anti-IgM, in human whole blood; assay: CD69 whole blood assay (human whole blood, anti-IgM stimulated); assay type: cell-based; conditions: concentration decreasing by 50% the percent CD69 positive of CD20 positive cells stimulated by anti-IgM, 20 hours, read-out: IC50 in the CD69 Whole Blood Assay
Task for the reader: assign each of the following compounds its reported IC50.
Numbers only, in nM.

-- ask Bench note: what IC50 did Cn1c(CN2CCN(C(C)(C)C)CC2)nc2c(N3CCOCC3)nc(-n3c(C4CC4)nc4ccccc43)nc21 show?
-- reply 22

-- ask Bench note: what IC50 did CNc1nc2ccccc2n1-c1nc(N2CCOCC2)c2nc(CN3CCN(C(C)(C)C)CC3)n(C)c2n1 show?
-- reply 34.2

-- ask Bench note: what IC50 did Cc1nc2ccccc2n1-c1nc(N2CCOCC2)c2nc(CN3CCN(C(C)(C)C(N)=O)CC3)n(C)c2n1 show?
-- reply 20.6

List the reported IC50 of each compound below.
1. Cc1nc2ccccc2n1-c1nc(N2CCOCC2)c2oc(CN3CCN(C(C)(C)C(N)=O)CC3)cc2n1
2. Cn1c(CN2CCN(C(C)(C)C(N)=O)CC2)nc2c(N3CCOCC3)nc(-n3c(C4CC4)nc4ccccc43)nc21
3. Cc1nc2ccccc2n1-c1nc(N2CCOCC2)c2nc(CN3CCC(C(C)(C)O)CC3)[nH]c2n1
4. CC(C)c1nc2ccccc2n1-c1nc(N2CCOCC2)c2nc(CN3CCN(C(C)(C)CO)CC3)[nH]c2n1

-- reply
17.8
65.9
28.6
38.3
